# ASSAY_EXPLANATION: collision cross section of unmodified peptide (TIMS, N2, iRT-aligned); higher = larger / more extended gas-phase ion
# RUN_PARAMETERS: charge state: 3
For each entry below, report its collision cross section value.
Give the quantity in Å², number only.

Exercise: What value of collision cross section has been recorded for this entry: `KFGVLSDNFK`
Solution: 446.92

Exercise: Lookup `GGPGAPGAPGPKGESGDYK`
Solution: 489.8

Exercise: Param item: `LAPEYEAAATR`
Solution: 432.76

Exercise: Do the same for `FPGVGVLPGVPTGAGVKPK` please
Solution: 560.63

Exercise: Try `GARLPGPVSSAR` next.
Solution: 465.32

Exercise: Again, but for `VFSIISSEKELK`
Solution: 485.92

Exercise: Here is the next sequence: `TQAEGQGQGRGLGLVSAVR`
Solution: 513.29

Exercise: Check `SGKFTQQDIDEAK` too.
Solution: 486.03

Exercise: Check `HIGFVYHPTK` too.
Solution: 450.25

###

# ASSAY_EXPLANATION: collision cross section of modified peptide (TIMS, N2, iRT-aligned); higher = larger / more extended gas-phase ion
# RUN_PARAMETERS: charge state: 2; modification: GlyGly (K)
Can you tell me collision cross section for the items I'm about to list?
API: value field is a number in Å²; no unit string.

Exercise: I'd like to know its collision cross section. The sequence in question is TVSKVDDFLANEAK [_TVSK(GlyGly (K))VDDFLANEAK_]
Solution: 429.63

Exercise: And the next one, IISSIEQKEENK [_IISSIEQK(GlyGly (K))EENK_] ?
Solution: 403.29

Exercise: Same again, this time with LQLEIDQKK [_LQLEIDQK(GlyGly (K))K_]
Solution: 376.75

Exercise: Please answer likewise for VLDSGAPIKIPVGPETLGR [_VLDSGAPIK(GlyGly (K))IPVGPETLGR_]
Solution: 467.11

###

# ASSAY_EXPLANATION: collision cross section of modified peptide (TIMS, N2, iRT-aligned); higher = larger / more extended gas-phase ion
# RUN_PARAMETERS: charge state: 3; modification: Acetyl (K)
Kindly supply the reported collision cross section values for the records listed here.
Use Å² as the unit, but write only the number.

Exercise: # get_value(readout='collision cross section', item= TEVLSPNSKVESK [_TEVLSPNSK(Acetyl (K))VESK_] )
Solution: 448.45

Exercise: Try the sequence DASTLQSQKAEGTGDAK [_DASTLQSQK(Acetyl (K))AEGTGDAK_]
Solution: 508.84

Exercise: Repeat for the following sequence: GTVPDDAVEALADSLGKK [_GTVPDDAVEALADSLGK(Acetyl (K))K_]
Solution: 527.69

Exercise: Would you mind doing ASDTSSETVFGKR [_ASDTSSETVFGK(Acetyl (K))R_] as well?
Solution: 476.65

Exercise: What do we get for FLQEFYQDDELGKK [_FLQEFYQDDELGK(Acetyl (K))K_] ?
Solution: 501.5

###

# ASSAY_EXPLANATION: collision cross section of unmodified peptide (TIMS, N2, iRT-aligned); higher = larger / more extended gas-phase ion
# RUN_PARAMETERS: charge state: 2
ASSAY_ENDPOINT: collision cross section (Å²)
The figure you give is taken to be in Å²; do not add the unit.

Exercise: GET /values?readout=collision cross section&item= `DDSNLYINVK`
Solution: 367.7

Exercise: Consider next the sequence `SAGSVESPSVSSTHR` in the same way.
Solution: 394.4

Exercise: Try this sequence too: `AQLSQYFDAVK`
Solution: 384.48

Exercise: Can you check `GSYLGGYSAGRGIYSR` next?
Solution: 455.17

Exercise: Thanks! And `SNEEGSEEKGPEVR` ?
Solution: 397.33

Exercise: Could you do the same for `TSSEASVSSSVAK` , please?
Solution: 370.17

Exercise: Moving on to `YTCSFCGK`
Solution: 338.71

Exercise: Then what about the sequence `LSSETYSQAK` ?
Solution: 348.96
